Reference source: ChEMBL document CHEMBL5346925

experiment: AUC (0 to t) in Sprague-Dawley rat at 0.1 mg/kg, iv by LC-MS/MS analysis; format: ADME, organism-based; set-up: dose 0.1 mg/kg, route iv; conditions: in vivo
measuredAttribute: AUC(0-t) (ng·h/mL)
Give the value, in units of ng·h/mL, as a plain number.

# AUC(0-t) lookup, item O=S1(=O)NCc2cccc(-c3ccc(-c4ccccc4F)cc3)c2O1
120

====

Let's look at some compounds and their measured Activity.
molecular target: Glutamate receptor ionotropic, AMPA (Rattus norvegicus) (UniProt P19491+P19492+P19493+P19490); assay: Agonist activity at AMPA receptor in rat Primary neuron cells assessed as potentiation of s-AMPA induced calcium flux at 1 uM incubated for 1 hr by calcium 2+ influx assay relative to s-AMPA coupled TAK-137; assay type: cell-based; details: filed as agonist
Please provide the amount together with its unit, number first.

A selection of reference data follows.
{"compound": "CC(C)Oc1ccc(-c2cccc3c2OS(=O)(=O)NC3)cc1", "Activity": "107%"}
{"compound": "O=S1(=O)NCc2cccc(-c3ccc(-c4ccccc4)cc3)c2O1", "Activity": "69.6%"}

# Activity lookup, item O=S1(=O)NCc2cccc(-c3ccc(C(F)(F)F)cc3)c2O1
81.3%

# Activity lookup, item CC1NS(=O)(=O)Oc2c(-c3ccc(-c4ccccc4F)cc3)cccc21 (stereo not drawn)
69.2%

# Activity lookup, item CC(C)(C)c1ccc(-c2cccc3c2OS(=O)(=O)NC3)cc1
106%

# Activity lookup, item Cc1ccc(-c2ccc(-c3cccc4c3OS(=O)(=O)NC4)cc2)cc1
66%

# Activity lookup, item COc1ccc(-c2cccc3c2OS(=O)(=O)NC3)cc1F
98.4%

====

assay: MRT (0 to infinity) in Sprague-Dawley rat at 1 mg/kg, po by LC-MS/MS analysis; type: ADME, organism-based; conditions: in vivo
measuredAttribute: MRT inf (h)
Give the value, in units of h, as a plain number.

# MRT inf lookup, item O=S1(=O)NCc2cccc(-c3ccc(-c4ccccc4F)cc3)c2O1
6.08

====

assay: MRT (0 to t) in Sprague-Dawley rat at 1 mg/kg, po by LC-MS/MS analysis; type: ADME, organism-based; settings: in vivo
measuredAttribute: MRT last

# MRT last lookup, item O=S1(=O)NCc2cccc(-c3ccc(-c4ccccc4F)cc3)c2O1
5.22 h

====

test: Drug concentration in Sprague-Dawley rat brain at 1 mg/kg, po measured after 4 hrs by LC-MS/MS analysis; format: ADME, organism-based; details: read-out: Ct
measuredAttribute: concentration at 4 h (ng/g)
Give the value, in units of ng/g, as a plain number.

# concentration at 4 h lookup, item O=S1(=O)NCc2cccc(-c3ccc(-c4ccccc4F)cc3)c2O1
120

====

assay: AUC (0 to infinity) in Sprague-Dawley rat at 0.3 mg/kg, iv by LC-MS/MS analysis; type: ADME, organism-based; parameters: dose 0.3 mg/kg, route iv; conditions: in vivo
measuredAttribute: AUC(0-inf) (ng·h/mL)
Give the value, in units of ng·h/mL, as a plain number.

# AUC(0-inf) lookup, item O=S1(=O)NCc2cccc(-c3ccc(Oc4ccccc4)cc3)c2O1
136

====

assay: Ratio of drug concentration in brain to plasma in Sprague-Dawley rat at 1 mg/kg, po measured after 4 hrs by LC-MS/MS analysis; type: ADME, organism-based; details: read-out: BPR
measuredAttribute: Kp at 4 h
API doc: respond with a numeric literal and nothing else, no unit.

# Kp at 4 h lookup, item O=S1(=O)NCc2cccc(-c3ccc(-c4ccccc4F)cc3)c2O1
1.55

====

test: Half life in Sprague-Dawley rat at 3 mg/kg, po by LC-MS/MS analysis; type: ADME, organism-based; settings: in vivo
measuredAttribute: half-life (h)
Give the value, in units of h, as a plain number.

# half-life lookup, item O=S1(=O)NCc2cccc(-c3ccc(Oc4ccccc4)cc3)c2O1
3.12

====

experiment: Drug concentration in Sprague-Dawley rat plasma at 1 mg/kg, po measured after 1 hr by LC-MS/MS analysis; format: ADME, organism-based
measuredAttribute: concentration at 1 h (ng/mL)
Give the value, in units of ng/mL, as a plain number.

# concentration at 1 h lookup, item O=S1(=O)NCc2cccc(-c3ccc(-c4ccccc4F)cc3)c2O1
132

====

assay: MRT (0 to infinity) in Sprague-Dawley rat at 0.1 mg/kg, iv by LC-MS/MS analysis; assay type: ADME, organism-based; settings: in vivo
measuredAttribute: MRT inf (h)
Give the value, in units of h, as a plain number.

# MRT inf lookup, item O=S1(=O)NCc2cccc(-c3ccc(-c4ccccc4F)cc3)c2O1
2.22

====

experiment: Cmax in Sprague-Dawley rat at 3 mg/kg, po by LC-MS/MS analysis; type: ADME, organism-based; design: dose 3 mg/kg, route po; settings: in vivo
measuredAttribute: Cmax (ng/mL)
Give the value, in units of ng/mL, as a plain number.

# Cmax lookup, item O=S1(=O)NCc2cccc(-c3ccc(Oc4ccccc4)cc3)c2O1
96.1

====

experiment: MRT (0 to infinity) in Sprague-Dawley rat at 0.3 mg/kg, iv by LC-MS/MS analysis; format: ADME, organism-based; details: in vivo
measuredAttribute: MRT inf
Please provide the amount together with its unit, number first.

# MRT inf lookup, item O=S1(=O)NCc2cccc(-c3ccc(Oc4ccccc4)cc3)c2O1
48.6 min

====

assay: Tmax in Sprague-Dawley rat at 1 mg/kg, po by LC-MS/MS analysis; type: ADME, organism-based; settings: in vivo
measuredAttribute: Tmax (min)
Give the value, in units of min, as a plain number.

# Tmax lookup, item O=S1(=O)NCc2cccc(-c3ccc(-c4ccccc4F)cc3)c2O1
30

====

Let's look at some compounds and their measured Activity.
molecular target: Glutamate receptor ionotropic, AMPA (Rattus norvegicus) (UniProt P19491+P19492+P19493+P19490); experiment: Agonist activity at AMPA receptor in rat Primary neuron cells assessed as increase in fluorescence level at 1 uM incubated for 1 hr by calcium 2+ influx assay relative to s-AMPA coupled TAK-137; format: cell-based
Give the value, in units of %, as a plain number.

{"compound": "O=S1(=O)NCc2cccc(-c3ccc(F)cc3)c2O1", "Activity (%)": 36.5}
{"compound": "N#Cc1ccc(-c2cccc3c2OS(=O)(=O)NC3)cc1", "Activity (%)": 2.9}
{"compound": "COc1ccc(-c2cccc3c2OS(=O)(=O)NC3)c(F)c1", "Activity (%)": 8.2}
{"compound": "COc1ccc(-c2ccc(-c3cccc4c3OS(=O)(=O)NC4)cc2F)cc1", "Activity (%)": 5.3}
{"compound": "O=S1(=O)NCc2cc(-c3ccc(Oc4ccccc4)cc3)ccc2O1", "Activity (%)": 0.5}

# Activity lookup, item COc1ccc(-c2ccc(-c3cccc4c3OS(=O)(=O)NC4)cc2)cc1
-3.7

# Activity lookup, item Cc1ccc(-c2ccc(-c3cccc4c3OS(=O)(=O)NC4)cc2F)cc1
6.3

# Activity lookup, item O=S1(=O)NCc2cccc(-c3ccc(-c4ccc(C(F)F)cc4)cc3)c2O1
7.2

# Activity lookup, item CC1NS(=O)(=O)Oc2c(-c3ccc(-c4ccc(F)cc4)cc3)cccc21 (configuration not stated)
3.7

# Activity lookup, item O=S1(=O)NCc2cccc(-c3ccc(OC(F)(F)F)cc3)c2O1
1.4

# Activity lookup, item O=S1(=O)NCc2cccc(-c3ccc(-c4ccc(F)c(F)c4)cc3)c2O1
2.5

# Activity lookup, item CC(C)Oc1ccc(-c2ccc(-c3cccc4c3OS(=O)(=O)NC4)cc2)cc1
-2.1

# Activity lookup, item O=S1(=O)NCc2cccc(-c3ccc(C(F)(F)F)cc3)c2O1
14

# Activity lookup, item O=S1(=O)NCc2cccc(-c3ccc(-c4ccc(F)cc4)cc3)c2O1
8.1

# Activity lookup, item COc1cccc(-c2ccc(-c3cccc4c3OS(=O)(=O)NC4)cc2)c1
2.5

# Activity lookup, item COc1ccccc1-c1ccc(-c2cccc3c2OS(=O)(=O)NC3)cc1
2.1

# Activity lookup, item Cc1ccc(-c2ccc(-c3cccc4c3OS(=O)(=O)NC4)cc2)cc1
3.5

# Activity lookup, item O=S1(=O)NCc2cccc(-c3ccc(-c4ccc(C(F)(F)F)cc4)cc3)c2O1
0.8

# Activity lookup, item COc1ccc(-c2ccc(-c3cccc4c3OS(=O)(=O)NC4)c(F)c2)cc1
3.2

# Activity lookup, item O=S1(=O)NCc2cccc(-c3ccc(Oc4ccccc4)cc3)c2O1
4.1

# Activity lookup, item O=S1(=O)NCc2cccc(-c3ccc4c(c3)OCO4)c2O1
17.1

# Activity lookup, item O=S1(=O)NCc2cccc(-c3cccc(Oc4ccccc4)c3)c2O1
1

====

assay: Tmax in Sprague-Dawley rat at 0.3 mg/kg, iv by LC-MS/MS analysis; type: ADME, organism-based; details: in vivo
measuredAttribute: Tmax (min)
Give the value, in units of min, as a plain number.

# Tmax lookup, item O=S1(=O)NCc2cccc(-c3ccc(Oc4ccccc4)cc3)c2O1
4.8
